# assayedSystem: Gal(b1-3)GlcNAc(b1-3)Gal(b1-4)GlcNAc(b1-3)Gal(b1-4)GlcNAc(b1-2)[Gal(b1-3)GlcNAc(b1-3)Gal(b1-4)GlcNAc(b1-3)Gal(b1-4)GlcNAc(b1-6)]Man(a1-6)[Gal(b1-3)GlcNAc(b1-3)Gal(b1-4)GlcNAc(b1-3)Gal(b1-4)GlcNAc(b1-2)Man(a1-3)]Man(b1-4)GlcNAc(b1-4)[Fuc(a1-6)]GlcNAc
# assayMethodText: glycan array binding signal (z-score within array); higher = stronger binding
# conditionLabel: glycan notation: IUPAC condensed, linker removed
The entries come from a sample that favours the strongest signals as a whole.
resultType: glycan array binding signal (z-score)
// return just the number, without any unit appended

Reference set, count: 6
Per the record, Mg3lysM (Mycosphaerella graminicola) (protein) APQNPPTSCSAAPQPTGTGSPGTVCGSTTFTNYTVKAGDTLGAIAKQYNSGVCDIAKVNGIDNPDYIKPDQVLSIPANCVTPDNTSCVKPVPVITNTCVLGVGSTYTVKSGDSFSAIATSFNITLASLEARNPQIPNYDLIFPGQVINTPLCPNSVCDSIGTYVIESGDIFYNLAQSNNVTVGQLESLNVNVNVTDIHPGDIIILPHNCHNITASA has glycan array binding signal (z-score) of 0.15

Form field glycan array binding signal (z-score), entry SfaEH (Escherichia coli), Q1RDG5 (protein) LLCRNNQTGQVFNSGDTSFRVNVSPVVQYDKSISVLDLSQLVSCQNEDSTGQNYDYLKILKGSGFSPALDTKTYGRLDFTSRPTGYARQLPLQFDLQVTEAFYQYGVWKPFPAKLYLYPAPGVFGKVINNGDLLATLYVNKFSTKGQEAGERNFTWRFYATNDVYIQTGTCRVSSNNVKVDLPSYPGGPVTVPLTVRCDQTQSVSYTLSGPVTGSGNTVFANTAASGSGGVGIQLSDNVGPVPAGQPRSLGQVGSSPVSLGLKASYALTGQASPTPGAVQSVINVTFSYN : 3.4

glycan array binding signal (z-score) for HA-61200 (Pseudomonas aeruginosa), Q02SP8_PSEAB (protein) MNKCYALVWNVSQGCWNVVSEGSRRRGKPAGAKAAIASVLALLGATALAPAYALPSGGTVVGGSANGEIHLSGGNSLSVNQKVDKLIANWDSFSVAAGERVIFNQPSSSSIALNRVIGTKASDIQGRIDANGQVFLVNPNGVLFGRGAQVNVGGLVASTLDITDAEFNGNSSRYRFTGPSTNGVLNHGGAITAAEGGSIALLGAQVDNRGTVLAQMGGVGLGAGSDLTLNFDGNKLLDIRVDAGVANALASNGGLLKADGGRVLMAARTANALLNTVVNSQGAIEARSLRGKNGRIVLDG is 2.44

// FimD (Bordetella pertussis) (protein) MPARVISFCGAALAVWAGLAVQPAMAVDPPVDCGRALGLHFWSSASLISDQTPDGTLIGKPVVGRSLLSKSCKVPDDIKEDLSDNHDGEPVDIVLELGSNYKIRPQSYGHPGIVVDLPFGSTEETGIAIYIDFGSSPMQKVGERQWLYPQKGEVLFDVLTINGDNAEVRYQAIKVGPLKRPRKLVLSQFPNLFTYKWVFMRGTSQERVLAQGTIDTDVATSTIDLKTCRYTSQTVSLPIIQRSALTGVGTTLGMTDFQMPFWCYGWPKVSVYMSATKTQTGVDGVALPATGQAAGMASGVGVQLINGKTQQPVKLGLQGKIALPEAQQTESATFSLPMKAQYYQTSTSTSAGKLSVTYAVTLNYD : glycan array binding signal (z-score) value = 0.259

The binder listed as LlpA (Burkholderia cenocepacia) (protein) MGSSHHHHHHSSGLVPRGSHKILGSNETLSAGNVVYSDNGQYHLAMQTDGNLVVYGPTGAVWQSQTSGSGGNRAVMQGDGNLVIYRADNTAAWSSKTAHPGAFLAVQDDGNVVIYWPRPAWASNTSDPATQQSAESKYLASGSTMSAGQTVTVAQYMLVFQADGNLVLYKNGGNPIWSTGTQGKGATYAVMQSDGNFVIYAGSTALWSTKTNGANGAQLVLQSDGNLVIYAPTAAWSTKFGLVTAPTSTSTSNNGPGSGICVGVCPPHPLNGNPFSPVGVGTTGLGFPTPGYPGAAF has a reported glycan array binding signal (z-score) of 0.703

Lab book: glycan array binding signal (z-score) of Na-CTL-1 (Necator americanus) (protein) MQRSFLLLLVVLAGAWAVNTTIPLKLMGGFTPMKYQCVGRVSDIWADVLFLIESSDMITKSGFRQVIAFITATTKKMTIGQDEKQTRVGFITYGEEAKLIYDLDHWRSTEKLSDLVQKIPYVKSSGTNIAAAIALANKVFNSPTHRPNVPKVMVIVANGLKKGSQNPIPVATAFKDFGGIIITIEYTQYDNIQVPILKKIASEGYNIRSNDEDFSVRTLTNMLLQANCFCPDHYVPFRVNNPEFGCFVTAKIPSMWRDAAEMCRAVEEGKLVKVENEEKAAFIMKLVGPKKEAWIGLRYYGNKFQWTDGTKLNADDFNLWPEDIKELNGPHCVSMYQDQKDKKYYWRAGKCLEDMRYVCEVQPCSASNYCSEPVFMYRQKHRALLPAPPPPPN noted as 1.66

Next:
Record Vd2LysM (Verticillium dahliae) (protein) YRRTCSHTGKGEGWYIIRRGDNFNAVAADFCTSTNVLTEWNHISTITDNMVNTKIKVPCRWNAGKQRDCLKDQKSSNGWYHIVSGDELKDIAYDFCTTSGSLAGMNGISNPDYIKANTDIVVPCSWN , field glycan array binding signal (z-score): 2.23

binder Tp0751, 83732 (protein) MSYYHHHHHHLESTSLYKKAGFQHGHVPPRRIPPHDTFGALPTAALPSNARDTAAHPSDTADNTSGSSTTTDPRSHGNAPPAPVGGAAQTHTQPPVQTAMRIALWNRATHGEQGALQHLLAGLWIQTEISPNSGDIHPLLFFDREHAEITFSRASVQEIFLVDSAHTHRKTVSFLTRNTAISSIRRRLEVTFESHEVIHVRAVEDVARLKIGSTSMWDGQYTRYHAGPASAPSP , glycan array binding signal (z-score) observed: -0.07

get_value(item= SJCP3842 (Schistosoma japonicum) (protein) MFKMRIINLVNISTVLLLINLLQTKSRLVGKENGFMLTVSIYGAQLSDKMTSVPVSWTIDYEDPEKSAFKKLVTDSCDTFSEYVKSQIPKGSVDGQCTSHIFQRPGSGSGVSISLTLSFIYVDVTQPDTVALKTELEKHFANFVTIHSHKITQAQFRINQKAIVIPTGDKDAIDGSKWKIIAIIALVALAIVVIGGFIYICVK , readout=glycan array binding signal (z-score)) returns 1.37
